Please provide measured GI50 for the entries that follow.
test system: SNB-75; test: NCI tumour cell line growth inhibition, 48 h
Calls of active or inactive are those of the source. No stated cut-off is given here; in the data, active = GI50 up to about 1.1 µM and inactive = higher.

Example cases with answers are listed next.
Cc1nc(C)c(N2CCN(C#N)CC2)c(O)n1 = 0.0442 µM (active)
O=C(c1nc2ccccc2nc1O)C(O)c1ccco1 (stereo not drawn) = 45.8 µM (inactive)
Cc1c(NC(=O)CSC(=S)N(C)C)c(=O)n(-c2ccccc2)n1C = > 100 µM (inactive)
COC1=CC(=O)c2c(O)c3c(c(O)c2C1=O)OC1(Oc2c(cc4cc(C)oc(=O)c4c2O)CC1O)C3O (stereo not drawn) = 60.4 µM (inactive)
C=CCC1(O)c2ccccc2C(=O)c2c(O)ccc(O)c21 (stereo not drawn) = 3.82 µM (inactive)
CC1(C)Oc2ccccc2[N+]([O-])=C1c1ccccc1 = > 100 µM (inactive)

Quick one: give me GI50 for each item below, same order please.
1. CC(C)C(=O)/C=C/c1ccccc1
2. O=C(c1ccccc1)n1cc(/C=C/[N+](=O)[O-])c2ccccc21
3. O=[N+]([O-])c1ccc(N/N=C2\C=CCCC2)c([N+](=O)[O-])c1
4. Cc1cc(N)ccc1/N=N\c1ccc(S(=O)(=O)CCOS(=O)(=O)O)cc1
5. CNC(=O)OCc1c2ccncc2c(C)c2c1[nH]c1ccccc12

1. > 100 µM (inactive)
2. 32.7 µM (inactive)
3. 27.2 µM (inactive)
4. 1.04 µM (active)
5. 0.21 µM (active)

Give GI50 for each of the items listed below.
1. Cc1ccc2c3c4c(ccc13)C(C)(C)OC4=C(C(C)C)C2=O
2. CC/C(Cl)=N\OC(=O)Nc1ccccc1OC(F)(F)F
3. Cc1cc(Br)cc(C)c1NC(=O)C(=O)C(C(=O)c1ccc2ccccc2c1)C1OC(=O)c2ccccc21 (stereo not drawn)
4. CCNC12CCC(C1)C(C)(C)C2=O (stereo not drawn)
5. CCCc1ccc(/N=C\c2cc(OC)c(OC)c(OC)c2)cc1

26.4 µM (inactive)
19.7 µM (inactive)
14.3 µM (inactive)
> 100 µM (inactive)
> 100 µM (inactive)

Below are 7 molecules. Give each one its GI50.
1. CCOC(=O)C(Cc1cc(OC)c(CC(C(=O)OCC)C(=O)OCC)cc1OC)C(=O)OCC
2. O=C(CC(c1ccccc1)C(C(=O)c1ccncc1)C(CC(=O)c1ccncc1)c1ccccc1)c1ccncc1 (stereo not drawn)
3. COc1cccc2c1C(=O)c1c(O)c3c(c(O)c1C2=O)C[C@@](O)(/C(C)=N/NC(=O)c1ccccc1)C[C@@H]3OC1CC(N)C(O)C(C)O1 (stereo partly drawn)
4. NNC(=S)N/N=C(/C(=O)Nc1ccc([N+](=O)[O-])cc1)c1nc2ccc([N+](=O)[O-])cc2nc1O
5. CC1(C)OCC2OC3([C@H](O)CCO)OC(C)(C)OC3C2O1 (stereo partly drawn)
6. CSCSSC
7. COc1ccc(C2CC(c3c(O)ccc4ccccc34)=NN2C(C)=O)cc1OC (stereo not drawn)

1: 28.6 µM (inactive); 2: 23.7 µM (inactive); 3: 0.373 µM (active); 4: > 100 µM (inactive); 5: > 100 µM (inactive); 6: 52.1 µM (inactive); 7: 19.8 µM (inactive)

* * *

test system: M14; test: NCI tumour cell line growth inhibition, 48 h
Activity calls are given as the source filed them. Cut-off read from the data, not from the text of the source: active = GI50 up to about 1.1 µM and inactive = higher.
metricName: GI50

Below: 5 compounds and their reported GI50.
CCNC12CCC(C1)C(C)(C)C2=O (configuration not stated) = > 100 µM (inactive)
CCN(CC)c1ccc(/C=C/C=C2C(=O)NC(=S)NC2=O)cc1 = 35.4 µM (inactive)
CC1CNC(NS(=O)(=O)c2cc(C(=O)Nc3ccc(F)cc3)c(Cl)cc2S)=NN1 (configuration not stated) = 42.3 µM (inactive)
O=Cc1c(C(=O)O)[nH]c(=O)[nH]c1=O = > 100 µM (inactive)
CCOC(CNc1nn2c(C)nnc2s1)OCC = > 100 µM (inactive)

For each of the items listed, what is its GI50?
1. CC(=O)OCCn1c(Cc2ccc([N+](=O)[O-])cc2)nn(C(C)=O)c1=O
2. ClCCN(CCCl)c1ccc(/C=N/Nc2ccnc3ccccc23)cc1
3. Cc1ccc(-c2n[nH]c(CC#N)n2)cc1

["> 100 µM (inactive)", "2.02 µM (inactive)", "> 100 µM (inactive)"]

Please state GI50 for every compound in the list that follows.
1. COc1ccc(C(=O)C(Br)C(Br)C(=O)O)cc1 (configuration not stated)
2. CN(NC(=O)/C(=C/c1ccc(O)cc1)NC(=O)c1ccccc1)c1ccnc2cc(Cl)ccc12
3. COC1=CC(=O)c2c(c(-c3csc(C)n3)cn2C)C1=O
4. COc1ccc2cc(/C=N/NC(=O)Nc3ccccc3)ccc2c1

["54.1 µM (inactive)", "19 µM (inactive)", "5.58 µM (inactive)", "> 100 µM (inactive)"]

* * *

test system: NCI-H460; experiment: NCI tumour cell line growth inhibition, 48 h
The source made the active and inactive calls. Cut-off read from the data, not from the text of the source: active = GI50 up to about 1.1 µM and inactive = higher.
metricName: GI50

Here are 5 compounds together with their reported answers.
CCOC(=O)/C([O-])=C(\C(=O)OCC)[n+]1c(C)n(C)c2ccccc21 = > 100 µM (inactive)
O=C(/N=N/C(=O)OCc1ccccc1)OCc1ccccc1 = > 100 µM (inactive)
CCN1CCC(O)(/C=C/c2ccc(Cl)c(Cl)c2)C(C(=O)/C=C/c2ccc(Cl)c(Cl)c2)C1 (configuration not stated) = 0.76 µM (active)
O=C(CC(c1ccccc1)C(C(=O)c1ccncc1)C(CC(=O)c1ccncc1)c1ccccc1)c1ccncc1 (configuration not stated) = 89.5 µM (inactive)
Nc1ccc2[nH]c3c(-c4ccccc4)nccc3c2c1 = 11.3 µM (inactive)

Could you report GI50 for every entry in the following list?
1. CC(C)C(=O)/C=C/c1ccccc1
2. COC(=O)C1CCC(=S)N1C(=O)c1ccccc1 (configuration not stated)
3. CCCCCN(CCCCC)CC(C)(C)C(O)c1ccc(OC)c2ccccc12 (configuration not stated)
4. CC(C)=CCC/C(C)=C/CC/C(C)=C/C1CCC(=O)C1(C)C (configuration not stated)
5. CC1(C)OCC2OC3([C@H](O)CCO)OC(C)(C)OC3C2O1 (some centres not stated)

["50.6 µM (inactive)", "40.6 µM (inactive)", "3.4 µM (inactive)", "17.5 µM (inactive)", "> 100 µM (inactive)"]

Quick batch: GI50 for everything below.
1. CC(=O)C1C(=O)C(=O)N(c2ccccc2C(C)C)C1=O (configuration not stated)
2. CCOC(=O)/C(=C/c1cccc(Cl)c1)N(CC)CC
3. COc1cccc(-c2cc(O)c3c(C)cc(C)nc3n2)c1
4. COc1ccc2c(c1)CCc1cc(OC)ccc1/[N+]([O-])=[N+]\2[O-]
5. COc1ccc(-c2cs/c(=N\c3ccccc3)n2CC(O)c2ccc([N+](=O)[O-])cc2)cc1 (configuration not stated)
6. CCCc1ccc(/N=C\c2cc(OC)c(OC)c(OC)c2)cc1
7. Cc1c2ccccc2cc2cccc[n+]12
8. CC(C)(C)c1ccc(O)c(C(O)c2cccnc2)c1 (configuration not stated)

1. > 100 µM (inactive)
2. 46.5 µM (inactive)
3. 0.455 µM (active)
4. 19.1 µM (inactive)
5. > 100 µM (inactive)
6. > 100 µM (inactive)
7. 35.2 µM (inactive)
8. > 100 µM (inactive)

For every item below, please supply its GI50.
1. COc1ccc(/C=C/c2cc(OC)c(OC)c(OC)c2)cc1O[Si](C)(C)C(C)(C)C
2. COC(=O)/C=C\[C@@H]1[C@H](C)N1S(=O)(=O)c1ccc(C)cc1 (some centres not stated)
3. O=[N+]([O-])c1ccc(C(O)/C(=N/O)c2nc3ccc(Cl)cc3nc2O)cc1 (configuration not stated)
4. COc1cc2ccnc(-c3n[nH]c4cc(OC)c(OC)cc34)c2cc1OC

["4.15 µM (inactive)", "> 100 µM (inactive)", "> 100 µM (inactive)", "> 100 µM (inactive)"]

* * *

tested on: HT-29; test: NCI tumour cell line growth inhibition, 48 h
Calls of active or inactive are those of the source. No stated cut-off is given here; in the data, active = GI50 up to about 1.1 µM and inactive = higher.
Valid outcomes are listed here; reply with one: active, inactive

COC1=CC(=O)c2c(c(-c3csc(C)n3)cn2C)C1=O = inactive
CC1(C)S[C@@H]2[C@H](NC(=O)[C@H](N)c3ccccc3)C(=O)N2[C@H]1C(=O)O = inactive

Let's switch to this molecule now.
Hello, I am checking results. What call was entered for "Cc1ccc(-c2n[nH]c(CC#N)n2)cc1" ?
inactive

* * *

tested on: SNB-75; assay: NCI tumour cell line growth inhibition, 48 h
Calls of active or inactive are those of the source. No stated cut-off is given here; in the data, active = GI50 up to about 1.1 µM and inactive = higher.
Form entry, call: pick from active, inactive

The examples below pair each entry with its known result.
C=CCn1c(=O)c(-c2ccccc2)c(O)c2ccccc21 = inactive
CCCC(=O)Nc1cc(/C=C/C(=O)N2CC(CCl)c3c2cc(OCc2ccccc2)c2[nH]cc(C)c32)n(C)c1 (stereo unspecified) = active
COc1ccc(C)cc1NC(=S)N/N=C/c1ccco1 = inactive
CCNC(=O)NNc1ncnc2c1c(-c1ccc(Cl)cc1)cn2-c1ccc(C)cc1 = inactive
CC(=O)OCC1OC(Sc2nc(-c3ccc(C)cc3)c(C#N)c(=O)n2C2OC(COC(C)=O)C(OC(C)=O)C(OC(C)=O)C2OC(C)=O)C(OC(C)=O)C(OC(C)=O)C1OC(C)=O (stereo unspecified) = inactive

Name the outcome recorded for "CC(=O)n1nc(-c2ccccc2)n(/N=C/c2ccc([N+](=O)[O-])o2)c1=O" in the assay.
inactive

Fill in: this test's call for "CCCCCC(=O)OC[n+]1cccc(-c2c(COC(=O)NC(C)C)c(COC(=O)NC(C)C)c3n2CCC3)c1" is ___
inactive

Check the results log: what was the call for COc1cc(/C=C2\CCC(C)c3c2nc(N)c(C#N)c3-c2cc(OC)c(OC)c(OC)c2)cc(OC)c1OC (stereo unspecified) ?
active

Which outcome was assigned to CC(NC(=O)C(N)CC(=O)O)NC(=O)N(C)C(C)(C)C (stereo unspecified) in this test?
inactive

Per the assay record, what outcome was assigned to "COc1ccc(/C(Cl)=C(\CNc2ccccn2)c2ccccc2)cc1OC" ?
inactive

Outcome logged for CC(C1=CC=C2[C@@H]3CCC4CC(N(C)C)CC[C@]4(C)C3CC[C@]12C)N(C)C=O (stereo partly specified) in this assay:
inactive
